Hi there, I'd appreciate the recorded abundance fitness for every entry that follows.
B1: POU domain, class 2, transcription factor 1, residues 285 to 354; numbered along this chain, P14859 (parent)
chain: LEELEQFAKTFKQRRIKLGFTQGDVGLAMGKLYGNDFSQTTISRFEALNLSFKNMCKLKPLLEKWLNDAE

variants of: B1; assay: abundance fitness (aPCA) (normalised: wild type 0, dead -1); higher = more abundant; growth selection in yeast, the domain comes from the species named; conditions: Homo sapiens
Numbers only.

Dear colleague, could you please provide abundance fitness for the variants listed below?
1. K31Y
2. R15N
3. I42S
4. T21D
5. S38A

Given back:
1: -0.069; 2: -0.902; 3: -0.997; 4: -0.191; 5: -0.038

Dear colleague, could you please provide abundance fitness for the variants listed below?
1. V25D
2. A69V

Given back:
1. -0.504
2. 0.014
